Test system: SiHa
protocol-notes: Growth inhibition of human SiHa cells after 48 hrs by sulforhodamine B assay
Type: functional
Activity calls are given as the source filed them. The calls are words filed in the database; no cut-off is given here.
readout: GI50

Worked cases, answers included:
structure=COc1ccc(NC(=O)Nc2ccc(C(=O)N[C@@H]3c4cc5c(cc4[C@@H](c4cc(OC)c(OC)c(OC)c4)[C@H]4C(=O)OC[C@@H]43)OCO5)cc2)cc1 readout=GI50 reported_result=inactive
structure=COc1cc([C@@H]2c3cc4c(cc3[C@@H](NC(=O)c3ccc(NC(=O)Nc5cc(C)cc(C)c5)cc3)[C@H]3COC(=O)[C@H]23)OCO4)cc(OC)c1OC readout=GI50 reported_result=inactive
structure=COc1cc([C@@H]2c3cc4c(cc3[C@@H](NC(=O)c3ccc(NC(=O)NCCBr)cc3)[C@H]3COC(=O)[C@H]23)OCO4)cc(OC)c1OC readout=GI50 reported_result="210 nM"
structure=COc1cc([C@@H]2c3cc4c(cc3[C@@H](NC(=O)c3ccc(NC(=O)Nc5cc(C(F)(F)F)cc(C(F)(F)F)c5)cc3)[C@H]3COC(=O)[C@H]23)OCO4)cc(OC)c1OC readout=GI50 reported_result=inactive
structure=COc1cc([C@@H]2c3cc4c(cc3[C@@H](NC(=O)c3ccc(NC(=O)Nc5ccc(Cl)cc5)cc3)[C@H]3COC(=O)[C@H]23)OCO4)cc(OC)c1OC readout=GI50 reported_result=inactive

The record that follows has no GI50 shown yet.
stdin: I am curious: what GI50 value has been reported for `COc1cc([C@@H]2c3cc4c(cc3[C@@H](NC(=O)c3ccc(NC(=O)Nc5cccc(Cl)c5)cc3)[C@H]3COC(=O)[C@H]23)OCO4)cc(OC)c1OC` ?
stdout: inactive
